System: MS2 coat protein
experiment: apparent KD of MS2 coat protein; higher = weaker reporter binding
test.context: Eterna round: R107; input ligand: tryptophan 2.4 mM
Please provide measured apparent KD of MS2 coat protein for the entries that follow.
The reply should contain only the number, in nM.

Exercise: Any idea what apparent KD of MS2 coat protein was measured for AUACAUGAGGAUCACCCAUGUCACACAGAAGGAGCGGCUGUAGAGCCAGGUAGGUCGCUGUACUGAAAAUACUUCAUACUCAUGU [#30 Exclusion - Arginine A] ?
Solution: 26.1

Exercise: Given the entry ACAUGAGUGGAUAAUAAAUAAGAAGGCGAAGGAGCGUGAAGAAUCACAGGUAGGUCGCGCAAAAUACAUGAGGAUCACCCAUGUU [JR_Nu_ExcArginiA_Sub031] , report its measured apparent KD of MS2 coat protein.
Solution: 25.9

Exercise: Fill in the blank: the reported apparent KD of MS2 coat protein of AUGCAUAGCCGAAGGAGCGCAAUAGAAUGACAUGAGGAUCACCCAUGUGUGUGAUGUGGAUUGCAGGUAGGUCGCGGAGUGGUAU [Exclusion - Arginine B (Freestyle 4)] is ____.
Solution: 30.5
